Recorded inhibition for the following compounds
# assayed_target: Genome polyprotein (Dengue virus type 2 (strain 16681-PDK53)) (UniProt P29991)
# method: flavivirus cap methylation enzyme inhibition – biochemical, confirmation dose response, primary screen (AID 588689)
# test_settings: Dengue-2 NS5 methyltransferase capping enzyme assay, at 25 µM, hits give high values
Screen size: about 340,000 compounds; about 1,000 (0.29%) were called active. Only a sample is shown. Entries with a potency or affinity are not part of this list.
Only the number, expressed in %, is required.

Before answering, review these 3 worked examples.
>>> quantitative_result("Oc1ccc(C[C@H]2CNCCN2CCc2cccc3ccccc23)cc1")
6.4
>>> quantitative_result("O=C(NC1CC2CCCC(C1)N2S(=O)(=O)c1ccccc1)c1ccco1 (configuration not stated)")
1.41
>>> quantitative_result("CCCCCc1nnc(N)s1")
0

## Input Returns the measured inhibition for the input compound. Input: COc1ccc(NC(=O)c2ccc(S(=O)(=O)N3CC(C)OC(C)C3)cc2)cc1 (configuration not stated)
## Output 3.36

## Input Likewise for CCOc1cc(C=O)cc(Cl)c1OCC(N)=O ?
## Output -2.73

## Input Likewise for O=[N+]([O-])c1cccc(/C=C/c2ccncc2)c1 ?
## Output 2.32

## Input Likewise for CCOc1ccc(/C=C/c2c([N+](=O)[O-])c(=O)n(C)c(=O)n2C)cc1 ?
## Output 0.74

## Input Likewise for Clc1ccc(C=Cc2ccccn2)c(Cl)c1 ?
## Output 3.5

## Input Likewise for COc1ccc(C(=O)C(C)Oc2cccc(NC(=O)c3cccc([N+](=O)[O-])c3)c2)cc1 (configuration not stated) ?
## Output 3.25

## Input Likewise for CSc1nsc(SC)c1NC(=O)N1CCCC1 ?
## Output -1.61

## Input Likewise for O=c1[nH]c(/C=C\c2cccc(Cl)c2)nc(O)c1[N+](=O)[O-] ?
## Output 15.9

## Input Likewise for S=c1[nH]nc(Cc2cccs2)n1-c1ccccc1 ?
## Output -2.82

----------
# assayed_target: Genome polyprotein (Dengue virus type 2 (strain 16681-PDK53))
# method: flavivirus cap methylation enzyme inhibition – biochemical, confirmation dose response, primary screen (AID 588689)
# test_settings: Dengue-2 NS5 methyltransferase capping enzyme assay, at 25 µM, hits give high values
In all, about 340,000 compounds went through this assay and about 1,000 (0.29%) were called active. Only a sample is shown. Entries with a potency or affinity are not part of this list.
readout_kind: inhibition (%)
Only the number, expressed in %, is required.

## Input Returns the measured inhibition for the input molecule. Input: O=C(c1ccccc1)c1ccc2nc(-c3ccco3)c(-c3ccco3)nc2c1
## Output 51.1

## Input Likewise for O=C(c1ccc2nc(-c3ccco3)c(-c3ccco3)nc2c1)N1CCN(c2ccccc2)CC1 ?
## Output 0

## Input Likewise for COc1ccc(Nc2ncnc3sc(-c4ccccc4)cc23)cc1 ?
## Output -5.46

## Input Likewise for Fc1cccc(/C=C2\CCCC3=C2NC(=S)NC3c2cccc(F)c2)c1 (stereo unspecified) ?
## Output 3.88

## Input Likewise for CCc1nc2ccc(C(=O)NCc3ccco3)cc2nc1CC ?
## Output -6.11

## Input Likewise for Cc1nc2ccc(C(=O)O)cc2nc1C ?
## Output -2.96

----------
# assayed_target: Genome polyprotein (Dengue virus type 2 (strain 16681-PDK53)) (UniProt P29991)
# method: flavivirus cap methylation enzyme inhibition – biochemical, confirmation dose response, primary screen (AID 588689)
# test_settings: Dengue-2 NS5 methyltransferase capping enzyme assay, at 25 µM, hits give high values
Screen size: about 340,000 compounds; about 1,000 (0.29%) were called active. A selection follows. Measured potencies and affinities stand elsewhere.
Recorded inhibition for the following compounds
Only the number, expressed in %, is required.

>>> quantitative_result("NC(=O)c1ccc(NC(=O)CNc2cc(S(=O)(=O)N3CCOCC3)ccc2N2CCCC2)cc1")
-2.57
>>> quantitative_result("NS(=O)(=O)c1ccc(N/N=C/c2ccc(O)cc2O)c([N+](=O)[O-])c1")
27.2
>>> quantitative_result("O=C(COc1ccccc1[N+](=O)[O-])Nc1cc(Cl)ccc1C(=O)O")
0
>>> quantitative_result("COc1ccccc1CCC(=O)N(C)CC(=O)Nc1ccc(F)cc1")
1.3
>>> quantitative_result("COc1cc(/C=N/Nc2ccc([N+](=O)[O-])cc2S(=O)(=O)N2CCOCC2)cc(OC)c1OC")
-2.58

## Input Record O=C(c1cnn(-c2ccccc2)c1)c1ccccc1O : what is its inhibition with Genome polyprotein (Dengue virus type 2 (strain 16681-PDK53)) (UniProt P29991)?
## Output 4.45

## Input Likewise for COc1cc(C(C(=O)NC2CCCC2)N(CCO)C(=O)Cn2nnc(-c3ccc(C)o3)n2)ccc1O (stereo not given) ?
## Output 0.83

## Input Likewise for CC(C)CN(C(=O)COC(=O)CCCc1c[nH]c2ccccc12)c1c(N)n(Cc2ccccc2)c(=O)[nH]c1=O ?
## Output 1.62

## Input Likewise for Cc1cc(=O)[nH]c(-c2cccs2)n1 ?
## Output 10.8

## Input Likewise for CCOC(=O)c1c(-c2ccccc2)oc2ccc(OCC(=O)O)cc12 ?
## Output -1.55
